assay target: Env of HIV-1 strain 250-4 (HIV-1)
procedure summary: cell-based or functional assay

binder	neutralization IC50
γ59κ3 (antibody, V domains shown) VH: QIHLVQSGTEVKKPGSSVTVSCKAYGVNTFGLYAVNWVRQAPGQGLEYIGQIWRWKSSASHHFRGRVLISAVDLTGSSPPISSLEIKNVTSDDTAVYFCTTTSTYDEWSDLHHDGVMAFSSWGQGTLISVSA VL: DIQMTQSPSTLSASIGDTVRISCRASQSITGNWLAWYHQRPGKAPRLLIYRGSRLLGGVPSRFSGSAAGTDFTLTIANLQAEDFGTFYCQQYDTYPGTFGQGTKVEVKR	> 15 µg/mL
γ15κ11 (antibody, V domains shown) VH: QIHLVQSGTEVKKPGSSVTVSCKAYGVNTFGLYAVNWVRQAPGQSLEYIGQIWRWKSSASHHFRGRVIISAVDLTGSSPPISSLEIKNLTSDDTAVYFCTTASTYDKWSGLHHDGVMAFSSWGQGTLISVSA VL: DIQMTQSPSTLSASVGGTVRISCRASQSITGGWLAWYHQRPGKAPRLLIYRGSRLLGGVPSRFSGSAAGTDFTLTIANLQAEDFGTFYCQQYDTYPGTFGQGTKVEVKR	> 15 µg/mL
8ANC3484 (antibody, V domains shown) VH: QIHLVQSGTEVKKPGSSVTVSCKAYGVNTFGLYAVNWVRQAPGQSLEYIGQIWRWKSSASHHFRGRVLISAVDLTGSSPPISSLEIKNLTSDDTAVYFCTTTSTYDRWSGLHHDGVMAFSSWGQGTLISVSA VL: DIQMTQSPSTLSASIGDTVRISCRASQSITGNWVAWYQQRPGKAPRLLIYRGAALLGGVPSRFRGSAAGTDFTLTIGNLQAEDFGTFYCQQYDTYPGTFGQGTKVEVKR	> 30 µg/mL
